Test system: pseudoviral particles bearing the SARS-CoV-1 Spike
experiment.summary: microbe, parasite or virus in culture
Format: cell-based
condition.details: Severe acute respiratory syndrome coronavirus, HEK-293T

{"molecule": "C=CCC(/C=C/OCC(O)CN(CC)CCC)OCC(O)CN(CC)CCC (stereo not shown) [VE607]", "IC50, µM": 1.47}
